Entry source: patent US20200115416A1

target: mouse melanocortin-3 receptor (mouse, UniProt P33033 1-323); test: cell-based or functional assay
Sequence (P33033 whole entry): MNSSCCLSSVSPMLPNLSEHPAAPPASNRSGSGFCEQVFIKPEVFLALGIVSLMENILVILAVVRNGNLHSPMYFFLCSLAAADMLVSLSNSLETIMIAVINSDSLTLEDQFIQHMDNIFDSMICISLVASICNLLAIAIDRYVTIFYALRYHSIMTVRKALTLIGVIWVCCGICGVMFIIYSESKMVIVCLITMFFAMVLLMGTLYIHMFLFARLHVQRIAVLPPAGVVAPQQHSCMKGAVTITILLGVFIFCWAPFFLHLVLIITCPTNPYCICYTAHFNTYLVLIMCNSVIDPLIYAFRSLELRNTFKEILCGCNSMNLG
Square brackets hold non-standard residues; d marks the D form.
quantity-name: antagonist pA2 (Schild, agonist NDP-MSH)

Batch lookup, antagonist pA2 (Schild, agonist NDP-MSH) per entry.
1. cyclo(PRFFEAF[dP]) [c[Pro-Arg-Phe-Phe-Glu-Ala-Phe-DPro]]
2. cyclo(PRFFNKF[dP]) (SMILES N=C(N)NCCC[C@@H]1NC(=O)[C@@H]2CCCN2C(=O)[C@H]2CCCN2C(=O)[C@H](Cc2ccccc2)NC(=O)[C@H](CCCCN)NC(=O)[C@H](CC(N)=O)NC(=O)[C@H](Cc2ccccc2)NC(=O)[C@H](Cc2ccccc2)NC1=O) [c[Pro-Arg-Phe-Phe-Asn-Lys-Phe-DPro]]
3. cyclo(PRFFAAF[dP]) [c[Pro-Arg-Phe-Phe-Ala-Ala-Phe-DPro]]

Response given:
["< 5.5", "< 5.5", "< 5.5"]
